target_or_system: mushroom tyrosinase (Agaricus bisporus, UniProt C7FF04)
Construct: purchased Sigma-Aldrich
Sequence (C7FF04 1-392 limits assumed): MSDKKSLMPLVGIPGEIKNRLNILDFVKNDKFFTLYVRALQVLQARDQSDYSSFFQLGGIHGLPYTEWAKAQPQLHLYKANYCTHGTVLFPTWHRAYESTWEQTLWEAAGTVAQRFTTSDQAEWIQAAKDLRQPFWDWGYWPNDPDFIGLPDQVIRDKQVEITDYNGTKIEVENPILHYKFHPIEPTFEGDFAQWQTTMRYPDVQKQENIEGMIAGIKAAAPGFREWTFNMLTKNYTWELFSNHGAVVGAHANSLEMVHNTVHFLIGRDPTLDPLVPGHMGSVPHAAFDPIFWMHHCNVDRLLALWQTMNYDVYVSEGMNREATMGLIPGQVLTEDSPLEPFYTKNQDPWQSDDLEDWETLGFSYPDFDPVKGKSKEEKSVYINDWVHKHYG
assay_method_text: Tyrosinase inhibition assay (oxidation of L-DOPA, diphenolase activity);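 note: dopachrome formation from L-DOPA by mushroom tyrosinase in phosphate buffer, compound preincubated with enzyme 10 min at 25 °C, inhibition versus sample-free control, enzyme-free blanks subtracted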
Type: biochemical
run_parameters: compound at 300 μM; two independent experiments; read-out: Tyrosinase Inhibition % ± STD (300 μM)
property_measured: inhibition at 300 µM
Form entry: enter the amount, then its unit.

Please review the following examples before continuing.
compound	property_measured	value_reported
OC[C@H]1O[C@@H](Oc2cc(O)cc(/C=C/c3ccc(O[C@@H]4O[C@H](CO)[C@@H](O)[C@H](O)[C@H]4O)cc3O)c2)[C@H](O)[C@@H](O)[C@@H]1O [Mulberroside A (3), mulberroside A]	inhibition at 300 µM	58.3%
CC(C)=CCc1c(O)ccc(C(=O)C2C(c3c(O)cc(O)c4c(=O)c(CC=C(C)C)c(-c5ccc(O)cc5O)oc34)C=C(C)CC2c2ccc(O)cc2O)c1O (stereo not drawn)	inhibition at 300 µM	49%

# evaluate next
Given O=Cc1ccc(O)cc1O [2,4-Dihydroxybenzaldehyde (9), 2,4-dihydroxybenzaldehyde] , respond with its inhibition at 300 µM.
4.9%
